The values you see were collected from the supplement of paper PMC10567573.

B1: GLTSCR2 (parent)
chain: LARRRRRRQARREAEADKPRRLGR

# Variants of: B1
# Test Description: protein stability index of a GFP-peptide fusion (GPS, HEK-293T) (PSI 1-6); higher = more stable;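 note: lentivirally expressed fusions sorted by FACS into six bins by GFP to DsRed ratio, PSI derived from sequencing read proportions per bin multiplied by bin number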
# Reported Conditions: c terminus: a fixed tail appended
Measurement Label: protein stability index

Mutation Spec	Measurement Label	Measured
R7V	protein stability index	4.6
D17Y	protein stability index	4.88
R4E	protein stability index	5.25
R21Q	protein stability index	5.13
R24G	protein stability index	4.79
P19R	protein stability index	4.54
A2N	protein stability index	4.9
R20V	protein stability index	4.65
R20E	protein stability index	4.52
Q9D	protein stability index	4.44
R3A	protein stability index	5.01
R8I	protein stability index	4.3
E15V	protein stability index	4.64
G23C	protein stability index	4.57
A14F	protein stability index	4.11
R5M	protein stability index	4.36
R11V	protein stability index	4.91
E15Y	protein stability index	4.21
E15S	protein stability index	4.12
A2L	protein stability index	3.84
R3V	protein stability index	4.35
K18E	protein stability index	5.03
A14I	protein stability index	4.28
E15L	protein stability index	4.16
L22T	protein stability index	4.74
D17T	protein stability index	4.66
G23A	protein stability index	4.34
L22G	protein stability index	4.3
G23V	protein stability index	4.45
R11G	protein stability index	3.7
P19E	protein stability index	4.64
D17F	protein stability index	4.73
L22H	protein stability index	4.23
R5Y	protein stability index	4.45
A2G	protein stability index	4.78
R21M	protein stability index	4.52
R5A	protein stability index	4.69
R20S	protein stability index	5.26
L1F	protein stability index	4.4
R24Q	protein stability index	4.62
L1N	protein stability index	4.89
R12P	protein stability index	4.6
R6D	protein stability index	4.96
R21Y	protein stability index	4.94
P19V	protein stability index	4.08
R3H	protein stability index	4.3
